- system-under-test: Serine/threonine-protein kinase 3 (Homo sapiens)
- experiment-summary: Inhibition of STK3 at 10 uM after 60 mins by TR-FRET assay
I'd be grateful if you could share measured inhibition for these entries.
Answer format: numeric, % implied, no suffix.

Form field inhibition, entry O=c1n(Cc2ccccn2)nc(-c2ccnc(NC3CCOCC3)c2)n1-c1ccc2ccccc2c1 : -9

Form field inhibition, entry O=c1[nH]nc(-c2ccnc(NC3CCOCC3)c2)n1-c1ccc2ccccc2c1 : -4

Form field inhibition, entry O=c1n(C2CCOCC2)nc(-c2ccnc(NC3CCCCC3)c2)n1-c1ccc2ccccc2c1 : -10

Form field inhibition, entry O=c1[nH]nc(-c2ccnc(NC3CCCCC3)c2)n1-c1ccc2ccccc2c1 : -9

Form field inhibition, entry O=c1n(Cc2ccncc2)nc(-c2ccnc(NC3CCCCC3)c2)n1-c1ccc2ccccc2c1 : 5

Form field inhibition, entry O=c1[nH]nc(-c2ccnc(NC3CCCOC3)c2)n1-c1ccc2ccccc2c1 (stereo unspecified) : -5

###

- system-under-test: Mitogen-activated protein kinase 9 (Homo sapiens)
- Sequence (P45984 whole entry): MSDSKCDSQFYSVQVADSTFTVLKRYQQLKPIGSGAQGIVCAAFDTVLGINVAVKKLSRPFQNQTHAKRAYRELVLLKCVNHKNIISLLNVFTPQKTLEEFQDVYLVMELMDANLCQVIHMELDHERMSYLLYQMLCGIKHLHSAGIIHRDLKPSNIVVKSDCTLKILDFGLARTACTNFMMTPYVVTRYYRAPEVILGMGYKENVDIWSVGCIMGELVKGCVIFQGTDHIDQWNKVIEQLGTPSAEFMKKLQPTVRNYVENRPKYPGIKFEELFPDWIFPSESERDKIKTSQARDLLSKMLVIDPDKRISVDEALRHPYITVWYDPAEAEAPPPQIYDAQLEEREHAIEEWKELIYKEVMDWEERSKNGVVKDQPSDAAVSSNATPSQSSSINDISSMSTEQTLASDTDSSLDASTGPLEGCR
- experiment-summary: Inhibition of recombinant JNK2 after 60 mins by TR-FRET assay
value-kind: pIC50
As a rule, pIC50 stands for the negative log10 of the concentration, concentration in M.

Form field pIC50, entry O=c1n(C2CCNCC2)nc(-c2ccnc(NC3CCOCC3)c2)n1-c1ccc2ccccc2c1 : 6.28

Form field pIC50, entry O=c1n(C2CCOCC2)nc(-c2ccnc(NC3CCCCC3)c2)n1-c1ccc2ccccc2c1 : 7.01

Form field pIC50, entry O=c1n(-c2ccccn2)nc(-c2ccnc(NC3CCOCC3)c2)n1-c1ccc2ccccc2c1 : 6.82

Form field pIC50, entry O=C(Nc1cc(-c2n[nH]c(=O)n2-c2ccc3ccccc3c2)ccn1)C1CC1 : 6.36

###

- system-under-test: Aurora kinase A (Homo sapiens)
- Sequence (whole entry): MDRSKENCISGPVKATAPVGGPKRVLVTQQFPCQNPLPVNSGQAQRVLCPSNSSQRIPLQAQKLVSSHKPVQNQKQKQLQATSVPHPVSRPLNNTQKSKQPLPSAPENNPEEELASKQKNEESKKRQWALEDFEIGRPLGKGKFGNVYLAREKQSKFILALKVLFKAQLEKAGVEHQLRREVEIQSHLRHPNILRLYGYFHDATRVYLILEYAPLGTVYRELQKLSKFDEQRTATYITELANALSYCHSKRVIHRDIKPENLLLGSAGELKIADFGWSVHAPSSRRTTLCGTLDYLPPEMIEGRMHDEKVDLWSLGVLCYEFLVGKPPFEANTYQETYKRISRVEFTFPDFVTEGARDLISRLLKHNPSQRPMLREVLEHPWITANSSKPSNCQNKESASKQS
- experiment-summary: Inhibition of Aurora A at 10 uM after 60 mins by TR-FRET assay
I'd be grateful if you could share measured inhibition for these entries.
Answer format: numeric, % implied, no suffix.

Form field inhibition, entry O=c1[nH]nc(-c2ccnc(NC3CCOCC3)c2)n1-c1ccc2ccccc2c1 : 30

Form field inhibition, entry O=c1n(C2CCOCC2)nc(-c2ccnc(NC3CCCCC3)c2)n1-c1ccc2ccccc2c1 : 0

Form field inhibition, entry O=c1n(Cc2ccccn2)nc(-c2ccnc(NC3CCOCC3)c2)n1-c1ccc2ccccc2c1 : 2

Form field inhibition, entry O=c1n(Cc2ccncc2)nc(-c2ccnc(NC3CCCCC3)c2)n1-c1ccc2ccccc2c1 : -5

Form field inhibition, entry O=c1[nH]nc(-c2ccnc(NC3CCCCC3)c2)n1-c1ccc2ccccc2c1 : 17

Form field inhibition, entry O=c1[nH]nc(-c2ccnc(NC3CCCOC3)c2)n1-c1ccc2ccccc2c1 (stereo unspecified) : 10
